Target: CaMKIIδ (Homo sapiens (Human), UniProt Q13557)
Assay: radioactive test on the recombinant CaMKIIδ enzyme (ATP-γ33P incorporation into Autocamtide-2)
Conditions: recombinant CaMKIIδ 0.37 nM, 10 μM ATP, 100 μM Autocamtide-2, two hours at 37°C
pIC50: −log10 of the molar value.
# pIC50 >= 7 gives 1, anything below gives 0

Please review the following examples before continuing.
{"smiles record": "CN(C)Cc1ccc(Nc2ncc3c(=O)c(C(N)=O)c(N)n(CC(F)(F)F)c3n2)cc1", "assigned label": 0}
{"smiles record": "CCn1c(N)c(C(N)=O)c(=O)c2cnc(Nc3ccc(C4CCN(CCC(F)(F)F)CC4)cc3OC)nc21", "assigned label": 1}
{"smiles record": "CCn1c(N)c(C(N)=O)c(=O)c2cnc(Nc3cccc(CN(C)C)c3)nc21", "assigned label": 0}

Identify whether the reported pIC50 of the following molecule is 7 or greater: `CCn1c(N)c(C(N)=O)c(=O)c2cnc(Nc3ccc(N4CCC(N5CCCC5)CC4)c(Cl)c3)nc21` 1

Evaluate `CCc1cc(N2CCN(C3CC3)CC2)ccc1Nc1ncc2c(=O)c(C(N)=O)c(N)n(CC)c2n1` : pIC50 at minimum 7? 0

Given `CCn1c(N)c(C(N)=O)c(=O)c2cnc(Nc3ccc4c(c3)CCNC4)nc21` , state whether its pIC50 is at least 7. 1

Decide: pIC50 of `CCn1c(N)c(C(N)=O)c(=O)c2cnc(Nc3ccc(C(=O)N4CCN(C)CC4)cc3)nc21` >= 7? 0

I'd appreciate it if you could say whether `CCn1c(N)c(C(N)=O)c(=O)c2cnc(Nc3ccc(C4CCN(C5CC5)CC4)cc3OC)nc21` has pIC50 at least equal to 7. 1
